Measured Kp at 1 h, listed per entry for reference.
- protocol_details: Brain to blood ratio in OF1 mouse at 1 mg/kg, iv measured at 1 hr post dose by LC-MS/MS analysis
- Type: ADME, organism-based
- condition_parameters: brain and blood, read-out: BBR
Could you respond with only the numeric value?

Example entries begin here.
* Nc1cc(C(F)(F)F)c(-c2cc(N3CCOC(c4ccccc4)C3)nc(N3CCOCC3)n2)cn1 (racemic) | 3.73
* CNC(=O)N(CCO)c1cc(-c2cnc(N)cc2C(F)(F)F)nc(N2CCOCC2)n1 | 0.12
* CNC(=O)N(C)c1cc(-c2cnc(N)cc2C(F)(F)F)nc(N2CCOCC2)n1 | 0.86
* C[C@H]1COC(=O)N1c1nc(-c2cnc(N)cc2C(F)(F)F)cc(N2CCOCC2)n1 | 0.11

Record N#Cc1cc(N)ncc1-c1cc(N2CCOC(CCO)C2)nc(N2CCOCC2)n1 (racemic) . Reported Kp at 1 h: 0.12
